- target entity: ZDHHC17 (UniProt Q8IUH5)
- Sequence (Q8IUH5 whole entry, looked up): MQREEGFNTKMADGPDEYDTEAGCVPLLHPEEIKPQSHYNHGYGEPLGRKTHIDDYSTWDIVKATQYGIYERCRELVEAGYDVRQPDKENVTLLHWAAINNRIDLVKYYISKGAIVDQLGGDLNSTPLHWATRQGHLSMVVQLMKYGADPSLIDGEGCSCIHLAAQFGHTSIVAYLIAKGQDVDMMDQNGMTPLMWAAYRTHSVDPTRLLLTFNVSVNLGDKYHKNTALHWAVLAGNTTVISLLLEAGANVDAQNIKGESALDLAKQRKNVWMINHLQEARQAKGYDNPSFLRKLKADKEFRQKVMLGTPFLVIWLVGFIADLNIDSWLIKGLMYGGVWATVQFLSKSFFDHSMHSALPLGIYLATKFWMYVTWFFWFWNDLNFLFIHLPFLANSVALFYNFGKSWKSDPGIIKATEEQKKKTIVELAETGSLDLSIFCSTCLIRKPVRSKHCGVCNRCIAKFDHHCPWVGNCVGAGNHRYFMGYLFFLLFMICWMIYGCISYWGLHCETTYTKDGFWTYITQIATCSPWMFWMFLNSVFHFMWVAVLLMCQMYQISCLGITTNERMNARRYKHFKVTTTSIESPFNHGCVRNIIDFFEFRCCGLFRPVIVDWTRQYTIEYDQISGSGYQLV
- method summary: log2 fold change, soluble protein after heating vs DMSO (PISA); higher = thermal stabilisation; K562 cells, 10 uM, 30 min; active = over 0.2 and 3.5 SD of the protein, either way, in both replicates (recomputed)
Of roughly 7,900 targets only a part is listed; those with a hit were picked by preference. About 0.6% of all pairs of compound and target were hits.
metric: log2 fold change
Numbers only.

In the examples that follow, each entry is paired with its recorded log2 fold change.
CO[C@H]1C[C@@H]2CC[C@@H](C)[C@@](O)(O2)C(=O)C(=O)N2CCCC[C@H]2C(=O)O[C@H]([C@H](C)C[C@@H]2CC[C@H](n3cnnn3)[C@H](OC)C2)CC(=O)[C@H](C)/C=C(\C)[C@@H](O)[C@@H](OC)C(=O)[C@H](C)C[C@H](C)/C=C/C=C/C=C/1C 0.039
Cc1cn(-c2cc(NC(=O)c3ccc(C)c(Nc4nccc(-c5cccnc5)n4)c3)cc(C(F)(F)F)c2)cn1 -0.004

Now consider the entry below.
Observed log2 fold change on ZDHHC17 (UniProt Q8IUH5), entry "CCN(CCCOc1ccc2c(Nc3cc(CC(=O)Nc4cccc(F)c4)[nH]n3)ncnc2c1)CCOP(=O)(O)O" , equals 0.067
